Examples of molecules with documented pIC50 follow.
target_desc: herpes DNA polymerase (Human herpesvirus 1)
measurement_protocol: herpes DNA polymerase activity assay
Type: biochemical
In plain terms, pIC50 is the concentration in mol/L turned into minus its base-10 logarithm.

>  <molecule>
O=C(O)CCNC(=O)CP(=O)(O)O [Example 3, PAA-β-Ala]

>  <target_desc>
herpes DNA polymerase (Human herpesvirus 1)

>  <recorded_endpoint>
pIC50

>  <result_value>
4.30

$$$$
>  <molecule>
O=C(O)CNC(=O)CP(=O)(O)O [Example 1, PAA-Gly]

>  <target_desc>
herpes DNA polymerase (Human herpesvirus 1)

>  <recorded_endpoint>
pIC50

>  <result_value>
4.54

$$$$

Continue with the molecule presented below.
# input molecule: C[C@@H](NC(=O)CP(=O)(O)O)C(=O)O [Example 2 (D), PAA-D-Ala] ; wanted: its pIC50 4.50

---

% Inhibition at Drug Level 1.666 μg/ml values, listed per item
target_desc: herpes DNA polymerase (Human herpesvirus 1, UniProt P04293)
Sequence (P04293 whole entry): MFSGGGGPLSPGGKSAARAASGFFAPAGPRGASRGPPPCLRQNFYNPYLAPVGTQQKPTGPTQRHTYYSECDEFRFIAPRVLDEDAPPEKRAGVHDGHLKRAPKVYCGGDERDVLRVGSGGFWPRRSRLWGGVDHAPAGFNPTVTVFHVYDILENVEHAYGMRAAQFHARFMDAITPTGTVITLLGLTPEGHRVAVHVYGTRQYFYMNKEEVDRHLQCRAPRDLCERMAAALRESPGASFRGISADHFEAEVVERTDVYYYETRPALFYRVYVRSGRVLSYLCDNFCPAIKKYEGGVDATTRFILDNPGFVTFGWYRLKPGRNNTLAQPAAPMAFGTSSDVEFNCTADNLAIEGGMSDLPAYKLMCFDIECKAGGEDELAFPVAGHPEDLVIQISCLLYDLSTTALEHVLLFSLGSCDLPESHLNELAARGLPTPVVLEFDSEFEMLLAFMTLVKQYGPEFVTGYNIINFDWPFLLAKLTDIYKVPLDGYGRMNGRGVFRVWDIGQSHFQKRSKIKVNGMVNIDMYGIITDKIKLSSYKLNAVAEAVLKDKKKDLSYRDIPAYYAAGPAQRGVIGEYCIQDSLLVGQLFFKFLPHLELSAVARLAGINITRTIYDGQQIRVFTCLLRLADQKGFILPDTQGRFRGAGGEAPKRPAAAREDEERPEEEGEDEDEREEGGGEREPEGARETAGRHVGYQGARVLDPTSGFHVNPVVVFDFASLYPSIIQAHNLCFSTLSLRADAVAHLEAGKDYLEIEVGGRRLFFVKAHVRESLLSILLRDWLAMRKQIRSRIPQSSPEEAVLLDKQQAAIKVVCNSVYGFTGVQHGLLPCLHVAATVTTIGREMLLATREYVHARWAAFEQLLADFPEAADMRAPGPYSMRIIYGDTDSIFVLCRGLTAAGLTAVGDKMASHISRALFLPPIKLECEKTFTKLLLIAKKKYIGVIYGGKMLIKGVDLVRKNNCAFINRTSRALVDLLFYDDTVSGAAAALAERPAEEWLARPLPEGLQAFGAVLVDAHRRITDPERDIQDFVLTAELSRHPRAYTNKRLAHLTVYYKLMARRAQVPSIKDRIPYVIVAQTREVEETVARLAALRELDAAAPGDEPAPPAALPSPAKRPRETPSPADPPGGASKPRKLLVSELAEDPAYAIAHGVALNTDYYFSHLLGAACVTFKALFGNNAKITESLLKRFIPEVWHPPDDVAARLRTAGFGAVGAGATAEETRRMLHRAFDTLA
measurement_protocol: herpes DNA polymerase activity assay
Format: biochemical
measurement_parameters: fixed dilution, drug level 1.666 μg/ml
Write the figure, then the unit, nothing else.

Answered cases to consult:
>  <compound>
O=C(O)CP(=O)(O)O [PAA-Na, reference compound]

>  <result_value>
82%

$$$$
>  <compound>
O=C(O)CCNC(=O)CP(=O)(O)O

>  <result_value>
15%

$$$$

Look up % Inhibition at Drug Level 1.666 μg/ml: O=C(O)CC(NC(=O)CNC(=O)CP(=O)(O)O)C(=O)O (centres unmarked) 39%

Can you look up the measured % Inhibition at Drug Level 1.666 μg/ml of O=C(O)CNC(=O)CP(=O)(O)O for me? 33%

# % Inhibition at Drug Level 1.666 μg/ml lookup, item C[C@@H](NC(=O)CP(=O)(O)O)C(=O)O 19%

---

target_desc: UniProt P04293
measurement_protocol: herpes DNA polymerase activity assay
Assay type: biochemical
measurement_parameters: fixed dilution, drug level 16.6 μg/ml
Protocol: The above compounds were tested for herpes DNA polymerase activity in the manner shown in Example 9 of U.S. Pat. No. 4,138,432. The assay, using fixed dilutions of the above compounds, produced the following results: When variable solution concentrations were used, the results were as follows: […]
# if measured % Inhibition at Drug Level 16.6 μg/ml < 70%: class 1  # else: class 0

Solved cases below.
>  <compound>
O=C(O)CP(=O)(O)O [PAA-Na, reference compound]

>  <target_desc>
UniProt P04293

>  <cat>
class 0

$$$$
>  <compound>
O=C(O)CNC(=O)CP(=O)(O)O [Example 1, PAA-Gly]

>  <target_desc>
UniProt P04293

>  <cat>
class 1

$$$$

API: query returns whether the compound falls strictly under 70% in % Inhibition at Drug Level 16.6 μg/ml. Query: O=C(O)CC(NC(=O)CNC(=O)CP(=O)(O)O)C(=O)O (centres unmarked) [Example 4, PAA-Gly-Asp] class 0

Check if % Inhibition at Drug Level 16.6 μg/ml falls below 70% for O=C(O)CCNC(=O)CP(=O)(O)O [Example 3, PAA-β-Ala] . class 1

---

target_desc: UniProt:P04293
measurement_protocol: herpes DNA polymerase activity assay
Assay type: biochemical
measurement_parameters: fixed dilution, drug level 166 μg/ml
One threshold, 90%, splits the recorded % Inhibition at Drug Level 166 μg/ml values: lower ones are True, equal or higher ones are False.

>  <compound>
O=C(O)CC(NC(=O)CNC(=O)CP(=O)(O)O)C(=O)O (stereo not drawn)

>  <cat>
False

$$$$

Is it true that % Inhibition at Drug Level 166 μg/ml reported for C[C@H](NC(=O)CP(=O)(O)O)C(=O)O is less than 90%? True

Does the reported % Inhibition at Drug Level 166 μg/ml of the following compound sit strictly below 90%? O=C(O)CNC(=O)CP(=O)(O)O True

Given the entry C[C@@H](NC(=O)CP(=O)(O)O)C(=O)O , would its reported % Inhibition at Drug Level 166 μg/ml be below 90%? True

Would you kindly verify if % Inhibition at Drug Level 166 μg/ml of O=C(O)CP(=O)(O)O [PAA-Na, reference compound] is strictly less than 90%? False
